# Tested on: Mycobacterium tuberculosis
# Method Summary: Inhibition of Mycobacterium tuberculosis His6-tagged InhA expressed in Escherichia coli BL21 using 2-trans-dodecenoyl-CoA as substrate assessed as conversion of NADH to NAD+ at 50 uM relative to control
Experimental Readout: inhibition (%)
Your answer should be a plain number; it is taken to be in %.

Some entries whose results are on file:
{"Compound": "CCCCCCCCNC(=O)N1CCN(C2c3ccccc3-c3ccccc32)CC1", "inhibition [%]": 34}
{"Compound": "O=C(Nc1ccccc1)N1CCN(C2c3ccccc3-c3ccccc32)CC1", "inhibition [%]": 84}
{"Compound": "CCCOc1ccc2c(c1)-c1ccccc1C2N1CCN(C(=O)c2ccccc2)CC1 (racemic)", "inhibition [%]": 91}
{"Compound": "CCCCCCc1ccc2c(c1)C(N1CCN(C(=O)c3ccccc3)CC1)c1ccccc1-2 (racemic)", "inhibition [%]": 48}
{"Compound": "[O-][S+](c1ccccc1)N1CCN(C2c3ccccc3-c3ccccc32)CC1 (racemic)", "inhibition [%]": 14}

Kindly consider the entry below.
Record c1ccc2c(c1)-c1ccccc1C2N1CCNCC1 . Reported inhibition: 7

----------
# Test system: Mycobacterium tuberculosis
# Method Summary: Inhibition of Mycobacterium tuberculosis His6-tagged InhA expressed in Escherichia coli BL21 using 2-trans-dodecenoyl-CoA as substrate assessed as conversion of NADH to NAD+ at 50 uM relative to control
inhibition overview
Your answer should be a plain number; it is taken to be in %.

Some entries whose results are on file:
{"Compound": "O=C(c1ccccc1)N1CCN(C2c3ccccc3-c3cc(OCc4ccccc4)ccc32)CC1 (racemic)", "Assayed Target": "Mycobacterium tuberculosis", "inhibition / %": 63}
{"Compound": "O=C(c1ccc2[nH]ccc2c1)N1CCN(C2c3ccccc3-c3ccccc32)CC1", "Assayed Target": "Mycobacterium tuberculosis", "inhibition / %": 87}
{"Compound": "CCCCCCOc1ccc2c(c1)-c1ccccc1C2N1CCN(C(=O)c2ccccc2)CC1 (racemic)", "Assayed Target": "Mycobacterium tuberculosis", "inhibition / %": 79}

Record O=C(c1ccccc1)N1CCC(C2c3ccccc3-c3ccccc32)CC1 . Reported inhibition: 93
